- Target entity: Tachykinin NK1 receptor (Bos taurus)
- Test summary: Binding affinity against NK1 receptor by displacement of [3H]SP from bovine retina membranes
So basically, if IC50 comes in under 20 nM it's criterion met, and if it's 20 nM or more it's criterion not met.

Sample smiles	Target entity	Label class
Cc1cc(C)cc(C(=O)N2CC[C@H](NCc3ccnc4ccccc34)C[C@H]2Cc2ccc(Cl)cc2)c1	Tachykinin NK1 receptor (Bos taurus)	criterion met
Cc1cc(C)cc(C(=O)N2CC[C@H](NCc3ccnc4ccccc34)C[C@H]2Cc2ccc3ccccc3c2)c1	Tachykinin NK1 receptor (Bos taurus)	criterion met
Cc1cc(C)cc(C(=O)N2CC[C@H](NCc3ccnc4ccccc34)C[C@H]2Cc2ccc(Cl)c(Cl)c2)c1	Tachykinin NK1 receptor (Bos taurus)	criterion met
Cc1cc(C)cc(C(=O)N2CC[C@H](NCc3ccnc4ccccc34)C[C@H]2Cc2ccc(C#N)cc2)c1	Tachykinin NK1 receptor (Bos taurus)	criterion not met
Cc1cc(C)cc(C(=O)N2CC[C@H](NCc3ccnc4ccccc34)C[C@H]2Cc2cc(Br)cc(Br)c2)c1	Tachykinin NK1 receptor (Bos taurus)	criterion not met
Cc1cc(C)cc(C(=O)N2CC[C@H](NCc3ccnc4ccccc34)C[C@H]2Cc2ccc(Cl)cc2Cl)c1	Tachykinin NK1 receptor (Bos taurus)	criterion not met
Cc1cc(C)cc(C(=O)N2CC[C@H](NCc3ccnc4ccccc34)C[C@H]2Cc2ccc([N+](=O)[O-])cc2)c1	Tachykinin NK1 receptor (Bos taurus)	criterion met
Cc1cc(C)cc(C(=O)N2CC[C@H](NCc3ccnc4ccccc34)C[C@H]2Cc2ccc(C(F)(F)F)cc2)c1	Tachykinin NK1 receptor (Bos taurus)	criterion met
COc1ccc(C[C@@H]2C[C@@H](NCc3ccnc4ccccc34)CCN2C(=O)c2cc(C)cc(C)c2)cc1	Tachykinin NK1 receptor (Bos taurus)	criterion met
Cc1cc(C)cc(C(=O)N2CC[C@H](NCc3ccnc4ccccc34)C[C@H]2Cc2ccc(C(N)=O)cc2)c1	Tachykinin NK1 receptor (Bos taurus)	criterion not met
COc1cccc(C[C@@H]2C[C@@H](NCc3ccnc4ccccc34)CCN2C(=O)c2cc(C)cc(C)c2)c1	Tachykinin NK1 receptor (Bos taurus)	criterion not met
Cc1cc(C)cc(C(=O)N2CC[C@H](NCc3ccnc4ccccc34)C[C@H]2CCc2ccccc2)c1	Tachykinin NK1 receptor (Bos taurus)	criterion not met
